Experiment: Mouse PK, multiple oral dosing of single compounds
Assay type: in vivo, KM mice
Details: KM, mouse, plasma, po, 30 mg/kg, multiple PO, times 4, 30 mg/kg, summary table; read-out: Tmax

{"Compound": "Brc1cc(Br)cc(C2CC(CN3CCCC3)N2Cc2ccccc2Br)c1 (stereo not shown) [BGAz-004]", "Readout unit": "h", "Tmax": 1}

====

Experiment: Mouse PK, multiple oral dosing of single compounds
Type: in vivo, KM mice
Conditions: KM, mouse, plasma, po, 30 mg/kg, multiple daily dosing 4 × 30 mg/kg PO; read-out: Tmax (Mouse, P.O.)

{"Molecule": "Brc1cc(Br)cc(C2CC(CN3CCCC3)N2Cc2ccccc2Br)c1 (stereo not shown) [BGAz-004]", "Tmax [h]": 1}

====

Test: HepG2 mitochondrial dysfunction (Glu/Gal cytotoxicity, MTT)
Assay type: cell-based
Settings: human, HepG2 cells, glucose medium, 24 h, MTT; read-out: HepG2 Cytotoxicity IC50, Glu

{"Compound": "CNCC1CC(c2ccc(OC(F)(F)F)cc2)N1Cc1ccccc1OC(F)(F)F (stereo not drawn) [BGAz-005]", "Rel": "=", "IC50 at 24 h [µM]": 21}
{"Compound": "Brc1cc(Br)cc(C2CC(CN3CCCC3)N2Cc2ccccc2Br)c1 (stereo not drawn) [BGAz-004]", "Rel": ">", "IC50 at 24 h [µM]": 100}
{"Compound": "FC(F)(F)Oc1ccc(C2CC(CN3CCCC3)N2Cc2ccccc2OC(F)(F)F)cc1 (stereo not drawn) [BGAz-002]", "Rel": "=", "IC50 at 24 h [µM]": 38}

====

Reported values of AUC(0-inf) for individual entries
Experiment: Mouse PK, combined (cassette) dosing of BGAz-001–005
Assay type: in vivo, KM mice
Details: male, KM, mouse, plasma, po, 5 mg/kg, PO 5 mg/kg, cassette, mean of animals; read-out: AUC(0-∞)

{"Compound": "Brc1cc(Br)cc(C2CC(CN3CCCC3)N2Cc2ccccc2Br)c1 (centres unmarked)", "AUC(0-inf) / ng·h/mL": 1410}
{"Compound": "CNCC1CC(c2ccc(OC(F)(F)F)cc2)N1Cc1ccccc1OC(F)(F)F (centres unmarked)", "AUC(0-inf) / ng·h/mL": 1540}

====

Experiment: Mouse PK, combined (cassette) dosing of BGAz-001–005
Type: in vivo, KM mice
Settings: male, KM, mouse, plasma, po, 5 mg/kg, PO 5 mg/kg, cassette, summary table; read-out: T1/2 (converted)
Assay metric: half-life (h)

{"Compound": "FC(F)(F)Oc1ccc(C2CC(CN3CCCC3)N2Cc2ccccc2OC(F)(F)F)cc1 (stereo not drawn)", "Assay metric": "half-life", "Test result": 24.9}
{"Compound": "CNCC1CC(c2ccc(OC(F)(F)F)cc2)N1Cc1ccccc1OC(F)(F)F (stereo not drawn)", "Assay metric": "half-life", "Test result": 35.7}
{"Compound": "Brc1cc(Br)cc(C2CC(CN3CCCC3)N2Cc2ccccc2Br)c1 (stereo not drawn)", "Assay metric": "half-life", "Test result": 11.4}

====

Assay: Mouse PK, multiple oral dosing of single compounds
Format: in vivo, KM mice
Conditions: KM, mouse, plasma; multiple PO 30 mg/kg, times 3, mean of animals; read-out: MRT(0-∞)
Assay metric: MRT inf (h)

{"Compound": "CNCC1CC(c2ccc(OC(F)(F)F)cc2)N1Cc1ccccc1OC(F)(F)F (stereo not shown) [BGAz-005]", "Readout unit": "h", "Test result": 116}

====

Assay: Mouse PK, multiple oral dosing of single compounds
Assay type: in vivo, KM mice
Conditions: KM, mouse, plasma, po, 30 mg/kg, multiple PO, times 4, 30 mg/kg, summary table; read-out: AUC(0-∞)

{"Molecule": "Brc1cc(Br)cc(C2CC(CN3CCCC3)N2Cc2ccccc2Br)c1 (stereo not shown)", "AUC(0-inf)": "5420 ng·h/mL"}

====

Assay: HepG2 mitochondrial dysfunction (Glu/Gal cytotoxicity, MTT)
Type: cell-based
Settings: human, HepG2 cells, galactose medium, 24 h, MTT; read-out: HepG2 Cytotoxicity IC50, Gal
Assay metric: IC50 at 24 h (µM)

{"Molecule": "FC(F)(F)Oc1ccc(C2CC(CN3CCCC3)N2Cc2ccccc2OC(F)(F)F)cc1 (stereo not drawn) [BGAz-002]", "Rel": "=", "Test result": 65}
{"Molecule": "Brc1cc(Br)cc(C2CC(CN3CCCC3)N2Cc2ccccc2Br)c1 (stereo not drawn) [BGAz-004]", "Rel": ">", "Test result": 100}
{"Molecule": "CNCC1CC(c2ccc(OC(F)(F)F)cc2)N1Cc1ccccc1OC(F)(F)F (stereo not drawn) [BGAz-005]", "Rel": "=", "Test result": 23}

====

Experiment: Mouse PK, multiple oral dosing of single compounds
Assay type: in vivo, KM mice
Conditions: KM, mouse, plasma; multiple PO 30 mg/kg, times 4, mean of animals; read-out: λz (converted)

{"Molecule": "Brc1cc(Br)cc(C2CC(CN3CCCC3)N2Cc2ccccc2Br)c1 (stereo not shown)", "k el (s⁻¹)": "2.89e-05"}

====

Assay: Mouse PK, multiple oral dosing of single compounds
Assay type: in vivo, KM mice
Details: KM, mouse, plasma, po, 30 mg/kg, multiple PO 30 mg/kg, times 4, mean of animals; read-out: AUC(0-∞)

{"Compound": "Brc1cc(Br)cc(C2CC(CN3CCCC3)N2Cc2ccccc2Br)c1 (stereo not shown)", "AUC(0-inf)": "5420 ng·h/mL"}

====

Assay: Mouse PK, combined (cassette) dosing of BGAz-001–005
Type: in vivo, KM mice
Conditions: male, KM, mouse, plasma; IV 1 mg/kg, cassette, mean of animals; read-out: MRT(0-∞)
Assay metric: MRT inf

{"Molecule": "Brc1cc(Br)cc(C2CC(CN3CCCC3)N2Cc2ccccc2Br)c1 (stereo not drawn) [BGAz-004]", "Assay metric": "MRT inf", "Test result": "9.25 h"}
{"Molecule": "FC(F)(F)Oc1ccc(C2CC(CN3CCCC3)N2Cc2ccccc2OC(F)(F)F)cc1 (stereo not drawn) [BGAz-002]", "Assay metric": "MRT inf", "Test result": "9.9 h"}
{"Molecule": "CNCC1CC(c2ccc(OC(F)(F)F)cc2)N1Cc1ccccc1OC(F)(F)F (stereo not drawn) [BGAz-005]", "Assay metric": "MRT inf", "Test result": "8.24 h"}

====

Assay: Mouse PK, multiple oral dosing of single compounds
Assay type: in vivo, KM mice
Details: KM, mouse, plasma, po, 30 mg/kg, multiple daily dosing 3 × 30 mg/kg PO; read-out: Cmax (Mouse, P.O.)
Assay metric: Cmax (ng/mL)

{"Compound": "CNCC1CC(c2ccc(OC(F)(F)F)cc2)N1Cc1ccccc1OC(F)(F)F (stereo not shown) [BGAz-005]", "Readout unit": "ng/mL", "Test result": 1710}

====

Test: Mouse PK, multiple oral dosing of single compounds
Type: in vivo, KM mice
Conditions: KM, mouse, plasma; multiple PO 30 mg/kg, times 4, mean of animals
Description: Methods for combined single dosing (BGAz001–005) and dosing of single compounds multiple times (BGAz004 and BGAz005) are described in detail in the Supporting Information (PK Data). Report on PK results of BGAz-004 by multiple oral dosing 7 Materials and instrument combined dosing […]
Assay metric: AUC(0-t) (ng·h/mL)

{"Compound": "Brc1cc(Br)cc(C2CC(CN3CCCC3)N2Cc2ccccc2Br)c1 (stereo not shown)", "Readout unit": "ng·h/mL", "Test result": 4760}

====

Test: Mouse PK, combined (cassette) dosing of BGAz-001–005
Type: in vivo, KM mice
Settings: male, KM, mouse, plasma; PO 5 mg/kg, cassette, mean of animals; read-out: MRT(0-∞)
Assay metric: MRT inf (h)

{"Compound": "CNCC1CC(c2ccc(OC(F)(F)F)cc2)N1Cc1ccccc1OC(F)(F)F (stereo not drawn)", "Readout unit": "h", "Test result": 38.7}
{"Compound": "Brc1cc(Br)cc(C2CC(CN3CCCC3)N2Cc2ccccc2Br)c1 (stereo not drawn)", "Readout unit": "h", "Test result": 15.7}
{"Compound": "FC(F)(F)Oc1ccc(C2CC(CN3CCCC3)N2Cc2ccccc2OC(F)(F)F)cc1 (stereo not drawn)", "Readout unit": "h", "Test result": 27.5}

====

Test: Mouse PK, multiple oral dosing of single compounds
Type: in vivo, KM mice
Conditions: KM, mouse, plasma; multiple PO 30 mg/kg, times 4, mean of animals; read-out: Vz/F
Assay metric: Vd/F (L/kg)

{"Compound": "Brc1cc(Br)cc(C2CC(CN3CCCC3)N2Cc2ccccc2Br)c1 (stereo not shown) [BGAz-004]", "Readout unit": "L/kg", "Test result": 67.5}

====

Test: Mouse PK, multiple oral dosing of single compounds
Assay type: in vivo, KM mice
Conditions: KM, mouse, plasma; multiple PO 30 mg/kg, times 3, mean of animals; read-out: λz (converted)
Assay metric: k el

{"Compound": "CNCC1CC(c2ccc(OC(F)(F)F)cc2)N1Cc1ccccc1OC(F)(F)F (stereo not shown) [BGAz-005]", "Test result": "1.42e-05 s⁻¹"}
